- Read-out: Monocyte Chemoattractant Protein-1 (MCP1), CCL2 (gene 6347)
- PROTOCOL: BSK_3C_MCP1: BioMAP Diversity Plus: 3C Assay for Monocyte Chemoattractant Protein-1 (MCP1) Biomarker Activity (AID 2283017)
- PARTICULARS: primary human endothelial cells (HUVEC); actives raise or lower the signal
- Experimental: BSK_3C is a cell-based, multiplexed-readout assay that uses umbilical vein endothelium, a human vascular primary cell, with measurements taken at 24 hours after chemical dosing in a 96-well plate.BSK_3C_MCP1 is an assay component measured in the BSK_3C assay. It measures MCP-1 antibody related to regulation of gene expression using ELISA technology.Data from the assay component BSK_3C_MCP1 was analyzed into 1 assay endpoint. […]
Activity calls are given as the source filed them. The calls were made as follows: active = hit-call score of the fitted dose curve at least 0.9, where 1 is the maximum; inactive = score below 0.9.
One label from this list, please: active, inactive

Outcome? "Clc1nc(Cl)c(Cl)c(Cl)c1Cl"
inactive

What do you have for "CCC(C)(C)C(=O)O[C@H]1C[C@@H](C)C=C2C=C[C@H](C)[C@H](CC[C@@H]3C[C@@H](O)CC(=O)O3)[C@H]21" ?
active

What do you have for "O=C(O)CCN(C1(C(=O)NO)CCCC1)S(=O)(=O)c1ccc(Oc2ccc(F)cc2)cc1" ?
inactive

What do you have for "CC[C@H](C)C(=O)O[C@H]1C[C@@H](C)C=C2C=C[C@H](C)[C@H](CC[C@@H]3C[C@@H](O)CC(=O)O3)[C@H]21" ?
active

What do you have for "Cn1c(=O)c2c(ncn2C)n(C)c1=O" ?
inactive
